- System: SW480
- Experiment notes: Antiproliferative activity against human SW480 cells assessed as reduction in cell growth
Quantity: IC50

So what does the record say about IC50 for Cc1c(Cl)ccc2c(/C=C3\NC(=O)N(C(C(=O)NC(CO)CO)c4ccc(F)c(F)c4)C3=O)c[nH]c12 (stereo unspecified) ? > 50 µM

----------
- Tested on: MCF7
- Experiment notes: Antiproliferative activity against human MCF7 cells assessed as reduction in cell viability measured for 48 hrs by MTT assay
- Test settings: MCF7, 48 h
compounds and their reported pIC50
Units for pIC50: none; it is -log10 of a concentration expressed in mol/L.

CC(C)C(=O)Nc1ccccc1SC(=O)C(C)C = 4.74

Report pIC50 for N#Cc1c2ccc(N)cc2nc2cc(N)ccc12 please. 5.37

----------
- Test system: BT-549
- Experiment notes: Cytotoxicity against human BT-549 cells assessed as cell growth inhibition
Quantity: IC50 (µM)
Your answer is read as µM, so omit the unit and give the number.

Would you mind telling me what IC50 value was observed for Cc1c2ccccc2c(CSC(=N)N)c2ccccc12 ? 1.5

----------
- Experiment notes: Cytotoxicity against human Triple-negative breast cancer cell
- Test settings: Breast carcinoma cell
Quantity: pIC50
Scale note: pIC50 = -log10(concentration in M).

Fill blank: measured pIC50 of the compound Brc1c2ccccc2c(C[P+](c2ccccc2)(c2ccccc2)c2ccccc2)c2ccccc12 is ____. 5.43

This collection of values is drawn from ChEMBL document CHEMBL5579884.
